// provenance: PubChem BioAssay (NCATS)

assay_details: Cellular viability qHTS for adrenocortical cancer (ACC) cell line SW-13 (AID 1963989);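 note: cells grown in serum-free medium with ITS supplement; % is set by controls: 0 for no effect and ±100 for the full control effect; nearly all actives have a fitted effect of over 65% in size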
condition_summary: SW-13 ACC cells viability, CellTiter-Glo, 48 h; hits give low values
Results filed as inconclusive are left out.
Entries annotated with measured activity (max response)
Entry rule: numbers only, all in %.

A selection of reference data follows.
[[record]]
structure_smiles_string = "NC(=O)c1ccc(I)c([N+](=O)[O-])c1"
reported_endpoint = "activity (max response)"
experimental_value = 11.3

[[record]]
structure_smiles_string = "CC(=O)[C@@]1(O)CC[C@H]2[C@@H]3C[C@H](C)C4=CC(=O)CC[C@]4(C)[C@H]3CC[C@@]21C"
reported_endpoint = "activity (max response)"
experimental_value = -1.82

[[record]]
structure_smiles_string = "O=C(NCCCNc1nc(Nc2cccc(CN3CCOCC3)c2)ncc1C1CC1)C1CCC1"
reported_endpoint = "activity (max response)"
experimental_value = 10.1

[[record]]
structure_smiles_string = "Cc1cnc(NC(=O)c2cc(Oc3cnc(C(=O)N(C)C)nc3)c3cc(C)oc3c2)cn1"
reported_endpoint = "activity (max response)"
experimental_value = -13.9


Exam item: Look up and report measured activity (max response) for this entry: NC(N)=NS(=O)(=O)c1ccc(N)cc1
Marked response: 7.35

Exam item: Look up and report measured activity (max response) for this entry: FC(F)(F)c1ccccc1-n1ccnc1
Marked response: 17.5

Exam item: Look up and report measured activity (max response) for this entry: Nc1nc(-c2ccccc2)c(Br)c(=O)[nH]1
Marked response: 0.407

====

assay_details: Quantitative highthroughput screen to assess conditional lethalithy of SEM cells grown in RPMI1640 with dialyzed fetal bovine serum (RPMI+ds) (AID 1963884); note: nearly all actives have a fitted effect of over 35% in size;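 for viability: 100% = DMSO control wells and 0% = empty wells without cells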
condition_summary: SEM B-ALL cells, RPMI+dialyzed FBS, CellTiter-Glo viability, 48 h; series mostly up to 45.8 µM
Results filed as inconclusive are left out. Calls of active or inactive are those of the source. The call rests on the fitted dose curve; in most records, active means well fitted cell-killing curve with a large enough effect; inconclusive means small, poorly fitted or top-dose-only effect, or effect the other way; inactive means no such curve, though single readings can be large or run the other way. Square brackets hold non-standard residues; d marks the D form. Peptide text beside a SMILES is read from it. * marks the point of attachment. Nva = CCC[C@H](N)C(=O)O; Cbz = O=C(OCc1ccccc1)*
Use one of these outcomes when replying: t = active, f = inactive

Completed entries (count: 8):
[[record]]
compound = "O=C1c2c(O)cccc2[C@@H]([C@@H]2O[C@H](CO)[C@@H](O)[C@H](O)[C@H]2O)c2cc(CO)cc(O)c21"
label = "f"

[[record]]
compound = "COc1cc2c(Oc3ccc4[nH]c(C)cc4c3F)ncnc2cc1OCCCN1CCCC1"
label = "t"

[[record]]
compound = "CC1=C[C@@H]2[C@@H]([C@@H](O)C[C@@]3(C)[C@H]2C[C@@H](C)[C@]3(O)C(=O)CO)[C@@]2(C)Cc3cnn(-c4ccccc4)c3C=C12"
label = "t"

[[record]]
compound = "O=C1NC(=O)C(=Cc2ccc3nccnc3c2)S1"
label = "f"

[[record]]
compound = "FC(F)(F)c1ccc(C=Cc2nc(COc3ccc(CCCCn4ccnn4)cc3)co2)cc1"
label = "t"

[[record]]
compound = "O=c1c(O)c(-c2ccc(O)c(O)c2)oc2cc(O)ccc12"
label = "t"

[[record]]
compound = "CCCC(CCC)C(=O)O"
label = "f"

[[record]]
compound = "CNC1CCC(N(Cc2cccc(-c3ccncc3)c2)C(=O)c2sc3ccccc3c2Cl)CC1 (configuration not stated)"
label = "t"


Exam item: Outcome logged for O=C(NCC1CCCCN1)c1cc(OCC(F)(F)F)ccc1OCC(F)(F)F (configuration not stated) in this assay:
Marked response: f

Exam item: Outcome logged for CC(C)(C)[N+]([O-])=Cc1ccc(S(=O)(=O)O)cc1S(=O)(=O)O in this assay:
Marked response: f

Exam item: Outcome logged for O=C1NC(=O)C(=Cc2ccc(-c3ccc(F)cc3)o2)S1 in this assay:
Marked response: f

Exam item: Outcome logged for CCC[C@@H](C=O)NC(=O)[C@H](CC(C)C)NC(=O)[C@H](CC(C)C)NC(=O)OCc1ccccc1 (Cbz-Leu-Leu-[Nva]-aldehyde) in this assay:
Marked response: t
